Reference source for all entries: paper PMC4832192

Molecular target: PhoP wild type (Mycobacterium tuberculosis, UniProt P71814 1-247)
Assay: ITC; 5 mM MgCl2; ITC: 20 mM HEPES pH 7.5, 100 mM NaCl, 5 mM MgCl2, 25 C, […]
Conditions: protein: recombinant; tags: N-terminal His-tag removed with TEV; chain copies: 2
Observable: pKd
Please treat pKd as minus the base-10 logarithm of the molar concentration.

Binder | Val
DRs3 (3-bp spacer) (dsDNA) DNA 1: AAGTACCTCACAGCACTTCACAGCTTTCAT DNA 2: ATGAAAGCTGTGAAGTGCTGTGAGGTACTT | 6.36
hisG (dsDNA) DNA 1: CGCGACCCGCAGCATGCTCACAGCTTTCGA DNA 2: TCGAAAGCTGTGAGCATGCTGCGGGTCGCG | 7.45
tetra (four motifs) (dsDNA) DNA 1: GTACCTCACAGCACTTTCACAGCTTTCTCACAGCTGATTCACAGCATCTATG DNA 2: CATAGATGCTGTGAATCAGCTGTGAGAAAGCTGTGAAAGTGCTGTGAGGTAC | 8.66

Proceed to the following item.
## Task Fill in the blank: the reported pKd of ahpC (dsDNA) DNA 1: TTTGCCTGACAGCGACTTCACGGCACGATG DNA 2: CATCGTGCCGTGAAGTCGCTGTCAGGCAAA is ____.
## Result 6.98
